ASSAY_TEXT: Quantitative High-Throughput drug screen in 47 multiple myeloma cell lines against the NCATS MIPE library collection: KMS11_JCRBsus cell viability assay (AID 1919873); note: nearly all actives have a fitted effect of over 50% in size
CONDITION_INFO: KMS11 myeloma viability, CellTiter-Glo ATP luminescence, 48 h; series mostly up to 45.8 µM
Inconclusive results are not listed. Active and inactive are the calls of the source. Calls come from the whole dose curve; as a rule, active = well fitted cell-killing curve with a large enough effect; inconclusive = small, poorly fitted or top-dose-only effect, or effect the other way; inactive = no such curve, though single readings can be large or run the other way.
# output must be one of active, inactive

q: GET /call?item= CC1(C)O[C@H]2C[C@@H]3[C@H]4CCC5=CC(=O)C=C[C@]5(C)[C@@]4(F)[C@@H](O)C[C@]3(C)[C@]2(C(=O)CO)O1 returns the recorded outcome of this test.
a: active

q: Same lookup for O=c1c(-c2ccc(O)cc2)coc2cc(O[C@@H]3O[C@H](CO)[C@H](O)[C@H](O)[C@H]3O)ccc12 , please.
a: inactive

q: Same lookup for NS(=O)(=O)c1cccc2c1C(=O)c1cccc(O)c1C2=O , please.
a: active

q: Same lookup for CC[C@H]1OC(=O)[C@H](C)C(=O)[C@H](C)[C@@H](O[C@H]2O[C@H](C)C[C@H](N(C)C)[C@@H]2O)[C@](C)(OC)C[C@@H](C)C(=O)[C@H](C)[C@H]2N(CCCCn3cnc(-c4cccnc4)c3)C(=O)O[C@]12C , please.
a: active
